Tested on: HS 578T breast
Assay: NCI tumour cell line growth inhibition, 48 h
Assay metric: TGI

Reported TGI ( O=c1c2cc3c(=O)n4c(cc(-c5ccccc5)c5cc(Cl)ccc54)nc3cc2nc2cc(-c3ccccc3)c3cc(Cl)ccc3n12 ) = > 100 µM

Reported TGI ( C/C(=N\NS(=O)(=O)c1ccc(C)cc1)P(=O)(O)O ) = > 100 µM

Reported TGI ( CCOC(=O)C1c2[nH]c3ccccc3c2CCN1C(=O)c1ccc(OC)o1 (stereo not given) ) = > 10 µM

Reported TGI ( CCC(=C/[C@H](C)C/C=C/C(C)=C/[C@@H](C)C(=O)[C@@H](C)[C@H](O)[C@@H](C)CC)/C=C/[C@@H]1OC(=O)C=C[C@H]1C ) = 1.95 µM

Reported TGI ( COc1ccc2c(=O)cc(C(Cl)(Cl)Cl)oc2c1 ) = 48.6 µM

Reported TGI ( N#CC(=N)c1ncn(-c2ccc(N)cc2)c1N ) = > 100 µM

Reported TGI ( CC(C)(C)c1cc(-n2c(-c3ccc(Cl)cc3)nc3cc(C(=O)Nc4ccc(Cl)cc4)ccc32)n[nH]1 ) = 93 µM

Reported TGI ( C=CCN(C(=O)OC(C)(C)C)[C@H](C)C(=O)N[C@@H](C)C(=O)OC ) = > 100 µM

Reported TGI ( N#CC(Cc1ccccc1)N(CCC1=CCCCC1)Cc1ccccc1 (stereo not given) ) = > 100 µM

Reported TGI ( CC(C)[C@H](NC(=O)[C@H](N)Cc1ccc(N(CCCl)CCCl)cc1)C(=O)O ) = > 100 µM

====

System: SR leukemia
Assay: NCI tumour cell line growth inhibition, 48 h
Assay metric: TGI (µM)
Quick note: give the figure in µM, leave out the unit.

Reported TGI ( O=C(CCN1CCN(c2ccccc2)CC1)N1CCc2c([nH]c3ccccc23)C1c1cccnc1 (stereo not given) ) = 59

Reported TGI ( Cc1c2c(c(O)c3c(O)cccc13)C(=O)C1(O)C(O)=C(C(=O)NCNc3ccc(C(N)=O)cn3)C(=O)C(N(C)C)C1C2 (stereo not given) ) = 9.53

Reported TGI ( CCC/C(=N\NC(=S)N1CC2CCC(CC2)C1)c1ccccn1 ) = 2.77

====

Tested on: MDA-MB-435
Assay: NCI tumour cell line growth inhibition, 48 h
For each of the compounds below, state its TGI.

Reported TGI ( COc1ccc(/C=C2\CCS(=O)(=O)c3ccccc3C2=O)cc1 ) = 89.8 µM

Reported TGI ( O=c1ccn(COC(COCc2ccccc2)COCc2ccccc2)c(=O)[nH]1 ) = > 100 µM

Reported TGI ( CNC(=O)c1ccccc1Nc1nc(Nc2cc(OC)c(OC)c(OC)c2)ncc1Br ) = 2.11 µM

Reported TGI ( CC(=O)NC1(c2cc3ccccc3s2)CCCCCC1 ) = > 100 µM

Reported TGI ( COc1ccc(N2C(=O)C3c4[nH]c5ccc(Br)cc5c4C4CCC(C(C)(C)C)CC4C3C2=O)cc1 (centres undefined) ) = > 100 µM

Reported TGI ( OC(c1ccc(C(F)(F)F)cc1)C(F)(F)c1nc2ccccc2o1 (centres undefined) ) = > 100 µM

Reported TGI ( NC(Cc1ccc(N(CCCl)CCCl)cc1)C(=O)NC(CCC(=O)O)C(=O)O (centres undefined) ) = > 100 µM

Reported TGI ( CCOC(=O)C1(C(=O)OCC)OC(C)=NC1(C(=O)OC)C(=O)OC ) = > 100 µM

Reported TGI ( O=c1c2cc3c(=O)n4c(cc(-c5ccccc5)c5cc(Cl)ccc54)nc3cc2nc2cc(-c3ccccc3)c3cc(Cl)ccc3n12 ) = > 100 µM

Reported TGI ( O=C(c1ccccc1)c1ccc2[nH]c(-c3c(Cl)c(Cl)c(Cl)c(Cl)c3C(=O)N/N=C/c3cccc(Oc4ccccc4)c3)nc2c1 ) = > 100 µM

Reported TGI ( Clc1ccc(-c2c3c(nn2-c2ccccn2)CCc2ccccc2-3)cc1Cl ) = > 100 µM

Reported TGI ( COc1cc(-c2cc(=O)c3c(O)c(CC=C(C)C)c(O)cc3o2)ccc1O ) = 22 µM

Reported TGI ( O=C(c1ccccc1)C(CN1CCCCC1)c1ccccc1 (centres undefined) ) = 4.19 µM

Reported TGI ( O=Nc1ccc(NO)c2ccccc12 ) = 3.57 µM

Reported TGI ( NC(=O)NCCCC(NC(=O)OCCCCCCn1ccc(=O)[nH]c1=O)C(=O)O (centres undefined) ) = > 100 µM

Reported TGI ( C=C(CCC/C(C)=C/C=C/[C@@H](C)CCCc1ccoc1)C[C@@H]1OC(=O)[C@H](C)[C@@H]1O ) = 16.3 µM

Reported TGI ( CC(C)[C@H](NC(=O)[C@H](N)Cc1ccc(N(CCCl)CCCl)cc1)C(=O)O ) = > 100 µM

Reported TGI ( CCN(CC)CC(O)CNc1c2ccc([N+](=O)[O-])cc2nc2cc(OC)c(OC)cc12 (centres undefined) ) = 1.42 µM

Reported TGI ( Cc1cc(N2CCOCC2)nc(N[C@@H]2CCC[C@H](Nc3ccnc4cc(Cl)ccc34)C2)n1 ) = 3.39 µM

Reported TGI ( Cc1cc(Cc2cc(C)c(NC(=O)C(=O)C3CCC4=C(SC5C=CC=CC5N4)C3=O)c(C(C)C)c2)cc(C(C)C)c1NC(=O)C(=O)C1CCC2=C(SC3C=CC=CC3N2)C1=O (centres undefined) ) = > 100 µM

Reported TGI ( O=c1[nH]nc(Cc2c[nH]c3ccccc23)o1 ) = > 100 µM

Reported TGI ( O=C1C(=O)N(c2cccc(C(F)(F)F)c2)C(=S)N1c1ccccc1 ) = 82.4 µM

Reported TGI ( CN(C)CCn1c(=O)c2ccc(NCCN3CCNCC3)c3c(=O)c4ccccc4n(c1=O)c23 ) = 9.01 µM

Reported TGI ( CC(=O)O[C@H]1CC[C@@]2(C)C(=CC[C@@H]3[C@@H]2CC[C@]2(C)c4c(C)nn(-c5ccccc5)c4C[C@@H]32)C1 ) = > 100 µM

Reported TGI ( COc1cc(NCCCN=C(N)NC(N)=NC(C)C)c2ncccc2c1 ) = 35 µM

Reported TGI ( CC1=C(c2ccccc2)NC(=S)C(C)C(c2ccccc2)=N1 (centres undefined) ) = 69.3 µM

Reported TGI ( CC1SCc2nc3ccccc3n21 (centres undefined) ) = > 100 µM

Reported TGI ( COc1c2ccoc2c(OC)c2oc(=O)ccc12 ) = > 100 µM

Reported TGI ( COC(=O)C(Cc1c[nH]c2ccccc12)NC(=O)c1ccc(-c2ccc(Cl)cc2Cl)o1 (centres undefined) ) = > 100 µM

Reported TGI ( CC(C)=CCC[C@](C)(O)[C@H]1CC[C@]2(C)[C@@H]1CC[C@@H]1[C@@]3(C)CC/C(=N/O)C(C)(C)[C@@H]3CC[C@]12C ) = > 100 µM

Reported TGI ( NCCCC[C@H](N)C(=O)Nc1ccc(-c2nc3ccccc3s2)cc1 ) = 35.1 µM

Reported TGI ( COC1CN(C)C(=Nc2cccc3ccccc23)S1 (centres undefined) ) = > 10 µM

Reported TGI ( CC(=O)OCC1OC(Nn2c(=O)[nH]c3ccccc3c2=O)C(OC(C)=O)C(OC(C)=O)C1OC(C)=O (centres undefined) ) = > 100 µM

Reported TGI ( Nc1nnnn1CCO ) = > 100 µM

Reported TGI ( CCCCCCCCCCCCCCCCCCNC(=S)/N=C\C1=C(O)c2ccccc2C1=O ) = 30.9 µM

Reported TGI ( C/C1=C/C(=O)O[C@@H]2C[C@@H](CC[C@H](C)/C=C\C=C\CC1)O[C@@](O)([C@@H]1CSC(=O)N1)C2 ) = > 2.24 µM

Reported TGI ( Cc1nnc(-c2cccc(-c3ccc(C(=O)NCC4CC4)cc3)c2)o1 ) = > 25 µM

Reported TGI ( Nc1nc2c(ncn2C2C=CC(CO)C2)c(=O)[nH]1 (centres undefined) ) = > 100 µM

Reported TGI ( COc1cccc(NC(=O)c2sc3nc(C)c(C(O)c4ccccc4)cc3c2N)c1 (centres undefined) ) = 0.0751 µM

====

Test system: DMS 273 small cell lung
Assay: NCI tumour cell line growth inhibition, 48 h
For each of the molecules below, state its TGI.
Quick note: give the figure in µM, leave out the unit.

Reported TGI ( CC(C)NC(=O)OCc1c(CO)c2c(n1C)-c1ccccc1CC2 ) = 62.4

Reported TGI ( C[C@]12CC/C(=N\O)C=C1CC[C@@H]1C2CC[C@@]2(C)C1CC[C@@H]2OC1CCCCO1 (stereo not given in full) ) = 32.6

====

System: DU-145 prostate
Assay: NCI tumour cell line growth inhibition, 48 h
Assay metric: TGI

Reported TGI ( O=c1c2cc3c(=O)n4c(cc(-c5ccccc5)c5cc(Cl)ccc54)nc3cc2nc2cc(-c3ccccc3)c3cc(Cl)ccc3n12 ) = > 100 µM

Reported TGI ( COc1cc(C2c3cc4c(cc3OC(NNS(=O)(=O)c3ccc(C)cc3)C2C)OCO4)cc(OC)c1O (centres undefined) ) = > 100 µM

Reported TGI ( C=CCN(C(=O)OC(C)(C)C)[C@H](C)C(=O)N[C@@H](C)C(=O)OC ) = > 100 µM

Reported TGI ( COc1ccccc1C1ON=C(c2ccc([N+](=O)[O-])cc2)N1C12CC3CC(CC(C3)C1)C2 (centres undefined) ) = > 100 µM

Reported TGI ( Cc1csc(/C=C/C(=O)c2nnn(-c3ccnc4c(C(F)(F)F)cccc34)c2C)c1 ) = > 100 µM

Reported TGI ( Cc1ccc(S(=O)(=O)Oc2nc3ccccc3nc2OS(=O)(=O)c2ccc(C)cc2)cc1 ) = > 100 µM

Reported TGI ( C[C@@]12CCC[C@@](C)(C(=O)O)C1CC[C@]13C[C@@](O)(CO)[C@](O)(CCC12)C3 (some centres undefined) ) = > 100 µM

Reported TGI ( COc1cc(C2SCC(=O)N2c2ncc(C)s2)cc(OC)c1OC (centres undefined) ) = > 50 µM

Reported TGI ( Cn1cnc([N+](=O)[O-])c1Sc1nc(N)nc2c1ncn2C1CC(O)C(CO)O1 (centres undefined) ) = > 50.8 µM
